Listed next: entries and their corresponding σ [%].
Tested on: σ receptors
Assay: Radioligand binding assay, σ receptors
Conditions: rat cerebral cortex, [3H]DTG 8 nM
observationType: σ [%] (%)

compound=O=S(=O)(N[C@@H]1CCN(CCCc2noc3cc(F)ccc23)C1)c1cc2ccccc2o1 endpointresult=84
compound=Cc1c(S(=O)(=O)NCC2CN(CCCc3noc4cc(F)ccc34)C2)sc2ccc(Cl)cc12 endpointresult=92
compound=O=S(=O)(N[C@H]1CCN(CCCc2noc3cc(F)ccc23)C1)c1cc2ccc(Cl)cc2s1 endpointresult=80
compound="CC1(C)Cc2cccc(OCCN3CCC(NS(=O)(=O)c4cccc(O)c4)C3)c2O1 (centres unmarked)" endpointresult=47
compound=Cc1cc(S(=O)(=O)N[C@@H]2CCN(CCCc3noc4cc(F)ccc34)C2)c(C)s1 endpointresult=95
compound=O=S(=O)(NCC1CN(CCOc2cccc3ccccc23)C1)c1ccc2ccccc2c1 endpointresult=81
compound=O=S(=O)(NCC1CN(CCOc2cccc3c2OCCO3)C1)c1ccc(Cl)c(Cl)c1 endpointresult=94
compound=O=S(=O)(NCC1CN(CCCc2noc3cc(F)ccc23)C1)c1ccc2scnc2c1 endpointresult=80

###

Biological target: D3 dopaminergic receptors (Homo sapiens, UniProt P35462)
Sequence (P35462 whole entry): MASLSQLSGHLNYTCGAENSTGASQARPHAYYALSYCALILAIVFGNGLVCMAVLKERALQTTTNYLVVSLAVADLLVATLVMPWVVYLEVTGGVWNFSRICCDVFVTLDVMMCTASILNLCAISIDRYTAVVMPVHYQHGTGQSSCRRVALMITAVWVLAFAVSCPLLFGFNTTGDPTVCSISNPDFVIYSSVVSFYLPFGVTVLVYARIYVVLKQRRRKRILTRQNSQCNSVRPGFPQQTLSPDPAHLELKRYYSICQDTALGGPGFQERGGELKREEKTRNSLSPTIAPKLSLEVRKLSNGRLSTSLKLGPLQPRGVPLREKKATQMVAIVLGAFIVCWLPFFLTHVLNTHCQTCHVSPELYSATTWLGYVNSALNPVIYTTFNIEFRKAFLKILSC
Test: Cellular functional assay, D3 dopaminergic receptors
Type: cell-based
Conditions: antagonism, D3 (h), CHO cells, stimulus dopamine (10 nM)
observationType: D3 antag [%] (%)

compound="Cc1c(S(=O)(=O)N[C@@H]2CCN(CCCc3noc4cc(F)ccc34)C2)sc2ccc(F)cc12 [Compound 202]" endpointresult=81
compound="O=S(=O)(N[C@@H]1CCN(CCCc2noc3cc(F)ccc23)C1)c1ccc2cc(Cl)ccc2c1 [Compound 200]" endpointresult=93
compound="Cc1cc(S(=O)(=O)NC2CCN(CCCc3noc4cc(F)ccc34)C2)c(C)s1 (stereo not shown) [Compound 221]" endpointresult=100
compound="Cc1c(S(=O)(=O)N[C@H]2CCN(CCCc3noc4cc(F)ccc34)C2)sc2ccc(F)cc12 [Compound 203]" endpointresult=65

###

# inhibition at 1 µM annotations
Target: 5-HT7 receptor (Homo sapiens, UniProt P34969)
Construct: purchased PerkinElmer
Sequence (P34969 whole entry): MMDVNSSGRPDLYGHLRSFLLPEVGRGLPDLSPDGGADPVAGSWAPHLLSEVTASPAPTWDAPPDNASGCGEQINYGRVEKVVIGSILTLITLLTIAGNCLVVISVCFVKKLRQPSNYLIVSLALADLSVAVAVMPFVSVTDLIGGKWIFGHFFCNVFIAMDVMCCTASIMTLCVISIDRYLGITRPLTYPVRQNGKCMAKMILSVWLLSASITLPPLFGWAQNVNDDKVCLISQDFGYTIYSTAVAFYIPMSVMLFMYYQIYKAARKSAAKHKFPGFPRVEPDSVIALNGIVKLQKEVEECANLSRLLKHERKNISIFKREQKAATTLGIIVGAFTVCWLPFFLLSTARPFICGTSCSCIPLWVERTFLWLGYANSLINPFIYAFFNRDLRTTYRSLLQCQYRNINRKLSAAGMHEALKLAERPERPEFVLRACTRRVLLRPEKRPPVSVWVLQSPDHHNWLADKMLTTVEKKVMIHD
Test: Radioligand binding assay, serotoninergic 5-HT7 receptors;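 also: test compound at 1 µM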
Conditions: binding assay result in %, Table 5a
observationType: inhibition at 1 µM (%)

compound="O=S(=O)(NC1CCN(CCCc2noc3cc(F)ccc23)C1)c1cc2ccccc2o1 (stereo not drawn)" assayedtarget="5-HT7 receptor (Homo sapiens, UniProt P34969)" observationtype="inhibition at 1 µM" displayunit=% endpointresult=99
compound=O=S(=O)(NC1CN(CCOc2cccc3[nH]ccc23)C1)c1cccc(Cl)c1 assayedtarget="5-HT7 receptor (Homo sapiens, UniProt P34969)" observationtype="inhibition at 1 µM" displayunit=% endpointresult=100
compound="O=S(=O)(NCC1CCN(CCOc2cccc3ccccc23)C1)c1cc2ccc(Cl)cc2s1 (stereo not drawn)" assayedtarget="5-HT7 receptor (Homo sapiens, UniProt P34969)" observationtype="inhibition at 1 µM" displayunit=% endpointresult=98
compound="O=S(=O)(NCC1CCN(CCOc2cccc3ccccc23)C1)c1cc2ccccc2s1 (stereo not drawn)" assayedtarget="5-HT7 receptor (Homo sapiens, UniProt P34969)" observationtype="inhibition at 1 µM" displayunit=% endpointresult=88
compound=O=S(=O)(NC1CN(CCOc2cccc3[nH]ccc23)C1)c1cccc2ccccc12 assayedtarget="5-HT7 receptor (Homo sapiens, UniProt P34969)" observationtype="inhibition at 1 µM" displayunit=% endpointresult=100
compound="O=S(=O)(NCC1CCN(CCCc2noc3cc(F)ccc23)C1)c1cccc(Cl)c1 (stereo not drawn)" assayedtarget="5-HT7 receptor (Homo sapiens, UniProt P34969)" observationtype="inhibition at 1 µM" displayunit=% endpointresult=89
compound="O=S(=O)(NCC1CCN(CCCc2noc3cc(F)ccc23)C1)c1csc2ccccc12 (stereo not drawn)" assayedtarget="5-HT7 receptor (Homo sapiens, UniProt P34969)" observationtype="inhibition at 1 µM" displayunit=% endpointresult=104
compound="O=S(=O)(NCC1CCN(CCOc2cccc3ccccc23)C1)c1ccc(F)c(Cl)c1 (stereo not drawn)" assayedtarget="5-HT7 receptor (Homo sapiens, UniProt P34969)" observationtype="inhibition at 1 µM" displayunit=% endpointresult=108
compound="O=S(=O)(NC1CCN(CCCc2c[nH]c3ccc(Cl)cc23)C1)c1cccc(F)c1 (stereo not drawn)" assayedtarget="5-HT7 receptor (Homo sapiens, UniProt P34969)" observationtype="inhibition at 1 µM" displayunit=% endpointresult=96
compound=O=S(=O)(N[C@@H]1CCN(CCCc2noc3cc(F)ccc23)C1)c1cc2ccc(Cl)cc2s1 assayedtarget="5-HT7 receptor (Homo sapiens, UniProt P34969)" observationtype="inhibition at 1 µM" displayunit=% endpointresult=93
compound=COc1cccc(S(=O)(=O)NCC2CN(CCCc3noc4cc(F)ccc34)C2)c1 assayedtarget="5-HT7 receptor (Homo sapiens, UniProt P34969)" observationtype="inhibition at 1 µM" displayunit=% endpointresult=87
compound=O=S(=O)(NCC1CN(CCCc2noc3cc(F)ccc23)C1)c1cccc2ccccc12 assayedtarget="5-HT7 receptor (Homo sapiens, UniProt P34969)" observationtype="inhibition at 1 µM" displayunit=% endpointresult=97
compound="CC1(C)Cc2cccc(OCCN3CCC(NS(=O)(=O)c4cccc(O)c4)C3)c2O1 (stereo not drawn)" assayedtarget="5-HT7 receptor (Homo sapiens, UniProt P34969)" observationtype="inhibition at 1 µM" displayunit=% endpointresult=84
compound="O=S(=O)(NCC1CCN(CCOc2cccc3c2OCCO3)C1)c1ccc(Cl)s1 (stereo not drawn)" assayedtarget="5-HT7 receptor (Homo sapiens, UniProt P34969)" observationtype="inhibition at 1 µM" displayunit=% endpointresult=87
compound=O=S(=O)(NCC1CN(CCCc2noc3cc(F)ccc23)C1)c1cccc(O)c1 assayedtarget="5-HT7 receptor (Homo sapiens, UniProt P34969)" observationtype="inhibition at 1 µM" displayunit=% endpointresult=113
compound=O=S(=O)(NCC1CN(CCOc2cccc3c2OCCO3)C1)c1ccc2cc(Cl)ccc2c1 assayedtarget="5-HT7 receptor (Homo sapiens, UniProt P34969)" observationtype="inhibition at 1 µM" displayunit=% endpointresult=90
compound="O=S(=O)(NC1CCN(CCCc2noc3cc(F)ccc23)C1)c1cccc(O)c1 (stereo not drawn)" assayedtarget="5-HT7 receptor (Homo sapiens, UniProt P34969)" observationtype="inhibition at 1 µM" displayunit=% endpointresult=94
compound=Cn1ccc2cc(S(=O)(=O)NCC3CN(CCOc4cccc5c4OCCO5)C3)ccc21 assayedtarget="5-HT7 receptor (Homo sapiens, UniProt P34969)" observationtype="inhibition at 1 µM" displayunit=% endpointresult=98
compound=O=S(=O)(NCC1CN(CCOc2cccc3c2OCCO3)C1)c1ccc2ccccc2c1 assayedtarget="5-HT7 receptor (Homo sapiens, UniProt P34969)" observationtype="inhibition at 1 µM" displayunit=% endpointresult=88
compound="O=S(=O)(NCC1CCN(CCOc2cccc3c2OCCO3)C1)c1ccc(C(F)(F)F)cc1 (stereo not drawn)" assayedtarget="5-HT7 receptor (Homo sapiens, UniProt P34969)" observationtype="inhibition at 1 µM" displayunit=% endpointresult=90
compound=O=S(=O)(NCC1CN(CCOc2cccc3c2OCCO3)C1)c1ccc(C(F)(F)F)cc1 assayedtarget="5-HT7 receptor (Homo sapiens, UniProt P34969)" observationtype="inhibition at 1 µM" displayunit=% endpointresult=94
compound=Cn1ccc2c(S(=O)(=O)NCC3CN(CCOc4cccc5ccccc45)C3)cccc21 assayedtarget="5-HT7 receptor (Homo sapiens, UniProt P34969)" observationtype="inhibition at 1 µM" displayunit=% endpointresult=104
compound="O=S(=O)(NC1CCN(CCCc2noc3cc(F)ccc23)C1)c1csc2ccccc12 (stereo not drawn)" assayedtarget="5-HT7 receptor (Homo sapiens, UniProt P34969)" observationtype="inhibition at 1 µM" displayunit=% endpointresult=97
compound=O=S(=O)(NCC1CN(CCOc2cccc3ccccc23)C1)c1ccc2cc(Cl)ccc2c1 assayedtarget="5-HT7 receptor (Homo sapiens, UniProt P34969)" observationtype="inhibition at 1 µM" displayunit=% endpointresult=105
compound="O=S(=O)(NCC1CCN(CCOc2cccc3ccccc23)C1)c1cccc2ccccc12 (stereo not drawn)" assayedtarget="5-HT7 receptor (Homo sapiens, UniProt P34969)" observationtype="inhibition at 1 µM" displayunit=% endpointresult=77
compound="O=S(=O)(NCC1CCN(CCOc2cccc3c2OCCO3)C1)c1ccc(F)c(Cl)c1 (stereo not drawn)" assayedtarget="5-HT7 receptor (Homo sapiens, UniProt P34969)" observationtype="inhibition at 1 µM" displayunit=% endpointresult=95
compound="O=S(=O)(NC1CCN(CCCc2c[nH]c3ccc(F)cc23)C1)c1cccc2ccccc12 (stereo not drawn)" assayedtarget="5-HT7 receptor (Homo sapiens, UniProt P34969)" observationtype="inhibition at 1 µM" displayunit=% endpointresult=96
compound=O=S(=O)(N[C@@H]1CCN(CCCc2noc3cc(F)ccc23)C1)c1cc2ccccc2o1 assayedtarget="5-HT7 receptor (Homo sapiens, UniProt P34969)" observationtype="inhibition at 1 µM" displayunit=% endpointresult=98
compound=Cc1cccc(S(=O)(=O)NCC2CN(CCCc3noc4cc(F)ccc34)C2)c1 assayedtarget="5-HT7 receptor (Homo sapiens, UniProt P34969)" observationtype="inhibition at 1 µM" displayunit=% endpointresult=87
compound=O=S(=O)(NC1CCN(CCCc2noc3cc(F)ccc23)CC1)c1ccc2cc(Cl)ccc2c1 assayedtarget="5-HT7 receptor (Homo sapiens, UniProt P34969)" observationtype="inhibition at 1 µM" displayunit=% endpointresult=89
compound="O=S(=O)(NC1CCN(CCCc2c[nH]c3ccc(Cl)cc23)C1)c1ccc(Cl)cc1 (stereo not drawn)" assayedtarget="5-HT7 receptor (Homo sapiens, UniProt P34969)" observationtype="inhibition at 1 µM" displayunit=% endpointresult=89
compound="O=S(=O)(NC1CCN(CCOc2cccc3ccccc23)C1)c1ccc2ccccc2c1 (stereo not drawn)" assayedtarget="5-HT7 receptor (Homo sapiens, UniProt P34969)" observationtype="inhibition at 1 µM" displayunit=% endpointresult=-49
compound=O=S(=O)(NCC1CN(CCOc2cccc3ccccc23)C1)c1cc2ccccc2s1 assayedtarget="5-HT7 receptor (Homo sapiens, UniProt P34969)" observationtype="inhibition at 1 µM" displayunit=% endpointresult=88
